Provenance of the data: ChEMBL document CHEMBL1961873

Target: Insulin-like growth factor 1 receptor (Homo sapiens);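 further: values are mean percent inhibition of IGF1R kinase activity, from the GSK published kinase inhibitor set (PKIS) screening panel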
Conditions: at 0.1 µM
Would you mind telling me the reported inhibition of each entry?
Value expressed in %; do not type the unit.

For COc1cc(N2CCN(C(C)C)CC2)ccc1Nc1nc(Nc2ccc(F)cc2C(N)=O)c2cc[nH]c2n1 , what is its reported inhibition?
101

May I ask what inhibition has been recorded for CCN(CC)S(=O)(=O)c1ccc(OC)c(Nc2ncc(-c3ccccc3)o2)c1 ?
7.86

Any idea what inhibition was measured for [O-][S+]1CCN(Cc2ccc(-c3ccc4ncnc(Nc5ccc(OCc6cccc(F)c6)c(Cl)c5)c4c3)o2)CC1 ?
3.08

Reported inhibition for COc1cccc(-n2ncc3c(N/N=C/c4ccc(F)cc4)ncnc32)c1 : what is it?
2.52

# input molecule: Cc1cccc2c1NC(=O)/C2=N\Nc1ccc(S(N)(=O)=O)cc1 ; wanted: its inhibition
1.39

Need inhibition of CN1CCC(n2cnc(-c3ccc(F)cc3)c2-c2ccnc(N)n2)CC1 , thanks.
0.43

Please report the recorded inhibition for CNC(=O)c1cccc(C#Cc2cncnc2Nc2ccc(OCc3cccc(F)c3)c(Cl)c2)c1 .
-0.34

Quick one: inhibition for Cc1ccc2c(-c3ccnc(Nc4ccccc4)n3)c(-c3ccc(F)cc3)nn2n1 ?
1.92

Quick check: inhibition of COc1cc(/C=N/Nc2ncnc3[nH]ncc23)ccc1O ?
3.46

Would you mind telling me what inhibition value was observed for CCn1cc(-c2ccnc3[nH]ccc23)c(-c2cccc(NC(=O)Nc3ccc(OCc4ccccc4)cc3)c2)n1 ?
-3.42

Give its inhibition value. Item: CCCN1CCC(c2ccc(Nc3nc(Nc4cc(F)ccc4C(N)=O)c4cc[nH]c4n3)c(OC)c2)CC1
91.8

Given the molecule COc1ccc(-c2nn3ncccc3c2-c2ccnc(Nc3ccc4c(c3)OCCO4)n2)cc1 , what is its reported inhibition?
-3.1

Tell me the measured inhibition of c1ccc(COc2ccc(Nc3ncnc4ccc(-c5ccco5)cc34)cc2)cc1 , please.
-0.83

For the molecule shown here, O=S(=O)(CCNCc1ccc(-c2ccc3ncnc(Nc4ccc(OCc5cccc(F)c5)c(Cl)c4)c3c2)o1)c1ccccc1 , give the reported inhibition.
4.87

Which inhibition is listed for CS(=O)(=O)CCNCc1ccc(-c2ccc3ncnc(Nc4ccc(OCc5ccccc5)c(C(F)(F)F)c4)c3c2)o1 ?
-0.48

Which inhibition reading was recorded for the molecule CC(C)COC(=O)c1ccc2c(c1)/C(=C/Nc1ccc(S(N)(=O)=O)cc1)C(=O)N2 ?
0.52

Which value of inhibition has been reported for NS(=O)(=O)c1ccc(N/N=C2\C(=O)Nc3ccc4ncccc4c32)cc1 in the records?
1.63

Given the molecule CCOc1ccc2c(-c3ccnc(Nc4cccc(C(F)(F)F)c4)n3)cnn2n1 , what is its reported inhibition?
-0.5

inhibition lookup needed for N#Cc1c(NC(=O)CN2CCOCC2)sc2c1CCCC2 , thanks.
4.81

Give the measured inhibition of COc1ccc(-c2cc(-c3c[nH]nc3-c3ccccn3)ccn2)cc1 .
3.75

Look at this molecule and give its reported inhibition. O=C(Nc1n[nH]c2cc(-c3ccc(F)cc3)ccc12)C1CC1
4.19

Reported inhibition for Cc1ccc(O)cc1Nc1ccnc2cc(-c3ccccn3)ccc12 : what is it?
5.77

Sample COc1cc2ncn(-c3cc(OCc4ccccc4C(F)(F)F)c(C(=O)N(C)C)s3)c2cc1OC — what was its inhibition?
1.61

Which inhibition value belongs to CC(C)(CO)CNC(=O)c1ccc2c(c1)/C(=N/Nc1ccc(S(N)(=O)=O)cc1)C(=O)N2 ?
-4.8

Looking for the measured inhibition of CCc1nn2ncccc2c1-c1ccnc(NC2CC2)n1 , can you help?
1.94

Which inhibition is listed for CC1=C(C(=O)Nc2cc(Cl)c3[nH]ncc3c2)C(c2ccc(C(F)(F)F)cc2)CC(=O)N1 (centres undefined) ?
2.66

Which inhibition value is on record for N#Cc1c(NC(=O)c2ccc(F)cc2)sc2c1CCCC2 ?
0.23

Report inhibition for NC(=O)c1sc(-n2cnc3ccc(C(F)(F)F)cc32)cc1OCc1ccccc1Br please.
3.3

Given the molecule COc1cc(Nc2nccc(Nc3ccc4c(C)n[nH]c4c3)n2)cc(OC)c1OC , what is its reported inhibition?
28

Which inhibition is reported for this molecule? COc1cccc(-c2c[nH]c3c(N/N=C/c4ccncc4)ncnc23)c1
0.05

Form field: reported inhibition of Fc1cccc(COc2ccc(Nc3ncnc4sc(-c5ccco5)cc34)cc2Cl)c1
0.23

Data request, read-out inhibition, for Clc1ccc(-c2nn3ncccc3c2-c2ccnc(Nc3ccccc3)n2)cc1
3.71

Reported inhibition for c1cc(-c2cnn3nc(N4CCOCC4)ccc23)nc(NC2CC2)n1 : what is it?
4.81

What value of inhibition has been reported for the following molecule? CCn1c(-c2nonc2N)nc2c(C#CC(C)(C)O)ncc(OC3CCNCC3)c21
1.97

* * *

Target: Ribosomal protein S6 kinase alpha-5 (Homo sapiens) (UniProt O75582);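 further: mean inhibition of MSK1, from screening of the GSK PKIS inhibitor set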
Sequence (O75582 whole entry, looked up): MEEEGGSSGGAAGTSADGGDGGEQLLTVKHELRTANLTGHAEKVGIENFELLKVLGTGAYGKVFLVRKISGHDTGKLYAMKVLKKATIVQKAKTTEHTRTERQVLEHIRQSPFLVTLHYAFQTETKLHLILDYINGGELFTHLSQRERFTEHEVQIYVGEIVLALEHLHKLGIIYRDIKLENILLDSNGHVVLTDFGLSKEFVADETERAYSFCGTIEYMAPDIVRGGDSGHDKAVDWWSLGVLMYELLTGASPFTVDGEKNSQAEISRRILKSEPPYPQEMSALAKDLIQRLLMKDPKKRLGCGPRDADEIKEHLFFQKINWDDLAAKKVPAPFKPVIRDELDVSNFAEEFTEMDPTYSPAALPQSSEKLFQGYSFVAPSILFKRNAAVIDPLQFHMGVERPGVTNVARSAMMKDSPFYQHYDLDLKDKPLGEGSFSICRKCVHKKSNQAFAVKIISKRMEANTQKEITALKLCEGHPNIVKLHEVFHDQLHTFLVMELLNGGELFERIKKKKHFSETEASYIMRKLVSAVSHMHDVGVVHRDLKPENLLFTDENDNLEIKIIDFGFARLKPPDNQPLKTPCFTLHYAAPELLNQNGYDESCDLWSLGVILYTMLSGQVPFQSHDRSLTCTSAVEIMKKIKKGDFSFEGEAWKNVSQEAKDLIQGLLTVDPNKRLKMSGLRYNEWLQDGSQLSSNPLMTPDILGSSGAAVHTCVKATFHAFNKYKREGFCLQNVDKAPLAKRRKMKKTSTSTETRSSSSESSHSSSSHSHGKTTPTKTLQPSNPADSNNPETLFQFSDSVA
Conditions: at 1 µM
I'd be grateful if you could share measured inhibition for these entries.
Numbers only here, please. The scale is %.

Sample c1cc(-c2cnn3nc(N4CCOCC4)ccc23)nc(NC2CC2)n1 — what was its inhibition?
3.75

Look at this compound and give its reported inhibition. CCOc1ccc2c(-c3ccnc(Nc4cccc(C(F)(F)F)c4)n3)cnn2n1
-1.09

// inhibition lookup, key: Cc1cccc2c1NC(=O)/C2=N\Nc1ccc(S(N)(=O)=O)cc1
4.06

Fill in: inhibition of COc1cccc(-c2c[nH]c3c(N/N=C/c4ccncc4)ncnc23)c1 is ___
9.82

What inhibition value was documented for this compound, CN1CCC(n2cnc(-c3ccc(F)cc3)c2-c2ccnc(N)n2)CC1 ?
2.23

Quick check: inhibition of NS(=O)(=O)c1ccc(N/N=C2\C(=O)Nc3ccc4ncccc4c32)cc1 ?
14.5

* * *

Target: Platelet-derived growth factor receptor alpha (Homo sapiens)
Settings: at 0.1 µM
Description: GSK_PKIS: PDGFRA mean inhibition at 0.1 uM [Nanosyn]
quantity_kind: inhibition (%)
Could you give me the number in %? Just the number is fine.

Tell me reported inhibition for CNC(=O)c1cncc(/C=C/c2ccccc2Cl)c1 , tested with Platelet-derived growth factor receptor alpha (Homo sapiens).
7.6

Form: Entry = CCCN1CCC(c2ccc(Nc3nc(Nc4cc(F)ccc4C(N)=O)c4cc[nH]c4n3)c(OC)c2)CC1 | System = Platelet-derived growth factor receptor alpha (Homo sapiens) | inhibition = ____
8.78

Query inhibition on Platelet-derived growth factor receptor alpha (Homo sapiens) for COc1cc2ncn(-c3cc(OCc4ccccc4C(F)(F)F)c(C(=O)N(C)C)s3)c2cc1OC
11

// map Cc1ccc(O)cc1Nc1ccnc2cc(-c3ccccn3)ccc12 to recorded inhibition (system: Platelet-derived growth factor receptor alpha (Homo sapiens))
67.2

API: value(readout=inhibition, system=Platelet-derived growth factor receptor alpha (Homo sapiens)) for record CC(C)(CO)CNC(=O)c1ccc2c(c1)/C(=N/Nc1ccc(S(N)(=O)=O)cc1)C(=O)N2
18.7

* * *

Target: Serine/threonine-protein kinase MARK2 (Homo sapiens) (UniProt Q7KZI7)
Sequence (Q7KZI7 whole entry): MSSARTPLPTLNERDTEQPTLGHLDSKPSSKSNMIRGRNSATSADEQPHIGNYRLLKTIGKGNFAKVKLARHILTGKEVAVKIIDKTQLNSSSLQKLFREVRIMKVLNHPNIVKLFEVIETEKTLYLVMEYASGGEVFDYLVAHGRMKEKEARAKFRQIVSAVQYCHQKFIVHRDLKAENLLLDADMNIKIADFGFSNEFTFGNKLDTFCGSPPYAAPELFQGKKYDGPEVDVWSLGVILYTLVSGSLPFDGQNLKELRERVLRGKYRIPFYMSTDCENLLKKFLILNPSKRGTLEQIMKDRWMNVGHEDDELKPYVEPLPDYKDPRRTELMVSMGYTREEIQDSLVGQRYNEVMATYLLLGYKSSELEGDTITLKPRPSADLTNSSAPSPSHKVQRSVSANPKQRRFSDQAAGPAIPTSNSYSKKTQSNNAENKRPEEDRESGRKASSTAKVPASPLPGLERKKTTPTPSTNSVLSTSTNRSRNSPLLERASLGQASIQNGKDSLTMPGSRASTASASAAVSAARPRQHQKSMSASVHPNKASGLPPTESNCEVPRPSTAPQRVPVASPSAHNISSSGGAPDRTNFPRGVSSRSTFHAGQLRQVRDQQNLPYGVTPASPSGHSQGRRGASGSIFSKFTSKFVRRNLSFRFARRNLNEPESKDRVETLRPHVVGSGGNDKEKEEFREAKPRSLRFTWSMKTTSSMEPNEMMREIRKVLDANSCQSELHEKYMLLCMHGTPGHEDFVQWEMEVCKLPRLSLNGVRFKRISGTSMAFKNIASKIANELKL
Settings: at 1 µM
Description: GSK_PKIS: PAR-1Balpha mean inhibition at 1 uM [Nanosyn]
quantity_kind: inhibition

Looking for the measured inhibition of COc1cc(/C=N/Nc2ncnc3[nH]ncc23)ccc1O , can you help?
17.5%

Item CNC(=O)c1cccc(C#Cc2cncnc2Nc2ccc(OCc3cccc(F)c3)c(Cl)c2)c1 has what recorded inhibition?
-2.06%

For the compound CN(C)CCOc1ccc(-c2nc(-c3ccncc3)c(-c3ccc4c(c3)CC/C4=N\O)[nH]2)cc1 , what inhibition is on record?
0.92%

# input compound: NS(=O)(=O)c1ccc(Nc2ncc(-c3ccccc3)o2)cc1 ; wanted: its inhibition
7.59%

Tell me the measured inhibition of COc1cccc(-n2ncc3c(N/N=C/c4ccc(F)cc4)ncnc32)c1 , please.
1.76%

Name the reported inhibition value associated with the compound Cc1ccc2c(-c3ccnc(Nc4ccccc4)n3)c(-c3ccc(F)cc3)nn2n1
1.15%

Could you tell me which inhibition is on file for COc1cc2c(cc1Nc1nc(Nc3ccsc3C(N)=O)c3cc[nH]c3n1)N(C(=O)CN(C)C)CCC2(C)C ?
9%

For the compound NC(=O)c1sc(-n2cnc3ccc(C(F)(F)F)cc32)cc1OCc1ccccc1Br , what inhibition is on record?
-0.94%

// inhibition lookup, key: Nc1nc(-c2ccc(F)cc2)c(-c2ccc3ncccc3n2)s1
0.96%

Requested field: inhibition. Item: c1ccc(COc2ccc(Nc3ncnc4ccc(-c5ccco5)cc34)cc2)cc1
1.38%

Param item = CCn1c(-c2nonc2N)nc2c(C#CC(C)(C)O)nc(OC[C@H](N)c3ccccc3)cc21 ; retrieve measured inhibition.
18.1%

Reported inhibition for CCn1c(-c2nonc2N)nc2ccccc21 : what is it?
2.79%

Report inhibition for COc1cc2ncn(-c3cc(OCc4ccccc4C(F)(F)F)c(C(=O)N(C)C)s3)c2cc1OC please.
-0.58%

Give the measured inhibition of COc1ccc(-c2cc(-c3c[nH]nc3-c3ccccn3)ccn2)cc1 .
1.63%

What inhibition value was documented for this compound, CCOc1ccc2c(-c3ccnc(Nc4cccc(C(F)(F)F)c4)n3)cnn2n1 ?
0.82%

Looking for the measured inhibition of [O-][S+]1CCN(Cc2ccc(-c3ccc4ncnc(Nc5ccc(OCc6cccc(F)c6)c(Cl)c5)c4c3)o2)CC1 , can you help?
2.61%

Reported inhibition for Clc1ccc(-c2nn3ncccc3c2-c2ccnc(Nc3ccccc3)n2)cc1 : what is it?
0.63%

Need inhibition, item CCCN1CCC(c2ccc(Nc3nc(Nc4cc(F)ccc4C(N)=O)c4cc[nH]c4n3)c(OC)c2)CC1
41%

For the compound CCn1cc(-c2ccnc3[nH]ccc23)c(-c2cccc(NC(=O)Nc3ccc(OCc4ccccc4)cc3)c2)n1 , what inhibition is on record?
1.54%

What does the record list as inhibition for N#Cc1c(NC(=O)c2ccc(F)cc2)sc2c1CCCC2 ?
0%
